Values compiled from the RNAGym collection of RNA variant scans (doi:10.7554/elife.80360).

B1: HDV Ribozyme (parent)
chain: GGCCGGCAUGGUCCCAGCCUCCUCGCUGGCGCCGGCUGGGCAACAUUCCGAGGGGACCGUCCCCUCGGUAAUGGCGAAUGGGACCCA

# Variants of: B1
# assay.name: self-cleavage, relative activity (ratio to wild type); higher = more cleavage; co-transcriptional
parameter.measured: self-cleavage
Please give only the number in your answer, with no unit.

Notebook: G54C G68C , self-cleavage read as 0.346

Notebook: C19U G52A , self-cleavage read as 0.137

Note to self: self-cleavage recorded for U12A C86G was 0.32

Memo: A78C , reported self-cleavage: 0.164

# self-cleavage (variant: C18G G39C ) is 0.0755

Per the record, A16G G81A has self-cleavage of 0.604

Value of measured self-cleavage for the entry C18G U79A : 0.0615

Per the records, this variant ( C15A A43G ) has self-cleavage equal to 0.323

Record U65C G82C , field self-cleavage: 0.252

Sure, the documented self-cleavage for C36U A43G is 0.196

// sample G28A U46G , its self-cleavage was 0.0665

GET /value?item= C13A G76C &field=self-cleavage returns 0.386

Entry G25A G59U ; self-cleavage = 0.264

Entry A8C A70U , self-cleavage reported as 0.623

Measured self-cleavage, G55A C63U : 0.913

For record A8G C14G the listed self-cleavage is 0

Notebook: U9A G74A , self-cleavage read as 0.491

Field self-cleavage (entry C30A A87G ) reads 0.614

# self-cleavage of C14A G31C = 0.0678

// recorded self-cleavage for A42C G50A : 0.325

# variant G31A G55A ; its self-cleavage = 0.376

Memo: U12A U23G , reported self-cleavage: 0.0791

The variant listed as C14A C66U has a reported self-cleavage of 1.03

GET /value?item= C26U C85A &field=self-cleavage returns 0.96

So for C64G C84A , the logged self-cleavage turned out to be 0.718

self-cleavage measured on A43U U79A = 0.122

The variant G54C C86A showed self-cleavage equal to 0.962

self-cleavage measured on C66U U69C = 0.92

Memo: C18A U65C , reported self-cleavage: 0.101

The measured self-cleavage associated with G1U C30A reads 0.426

So, G25U C86A ? Its self-cleavage was 0.102

// self-cleavage value for C24U G74U : 0.143

Form field self-cleavage, entry G59A A78C : 0.282

Short answer for A42C C84G : self-cleavage was 0

Note to self: self-cleavage recorded for G10A C63U was 0.655

The measured self-cleavage associated with A16U C57A reads 1.17

The reported value for G17U C63A in terms of self-cleavage is 0.517

self-cleavage reading for U9G C30A : 0.653

In plain terms, A71C G81U has a documented self-cleavage of 0.17

Value of self-cleavage reported for the variant A42G C61U is 0.656

The recorded self-cleavage for A16C G81C is 0.346

Lab note: C3A C15U gave self-cleavage of 0.371

The recorded self-cleavage for entry C66G G74C equals 0.199

get_value(item= G10A U12C , readout=self-cleavage) returns 0.188

Per the record, A43G U72A has self-cleavage of 0.453

Entry C64A C86U ; self-cleavage = 0.886

Field self-cleavage (entry C44A G55U ) reads 0.698

Lookup result for C14G G67A ; measured self-cleavage: 0.453

Lab note: measured self-cleavage of C7G G82U was 0

Looking up U79G G82C , I see its self-cleavage listed as 0.119

self-cleavage measured on U9C C24U = 1.05

response.value for C26A G29A (field: self-cleavage) = 0.13

The reported self-cleavage of the variant G6U G29A was 0.102

In plain terms, U20G C62U has a documented self-cleavage of 0.19

// sample C15A G54C , its self-cleavage was 0.806

C62U A77C has a reported self-cleavage of 0.491

self-cleavage in this record for G6C G31C : 0.399

Measured self-cleavage of C48G C63G : 0.306

Reported self-cleavage ( C13U U23G ) = 0.287

Per the records, this variant ( C15U G50A ) has self-cleavage equal to 1.08

Looking up G35A U65G , I see its self-cleavage listed as 0.554

Memo: U9C C41A , reported self-cleavage: 1.19

Recorded result, U12A U46C , self-cleavage: 0

GET /value?item= C15U C58U &field=self-cleavage returns 0.811

Memo: U27C G68U , reported self-cleavage: 0.642

The variant listed as G55A C86U shows self-cleavage equal to 0.989

Form: variant = G35U G68C ; self-cleavage = 0.4

Looking up C3U G34A , I see its self-cleavage listed as 0.106

self-cleavage in this record for U69A A83U : 0.427

The recorded self-cleavage for U46C U60C is 0.772

Lab book: self-cleavage of U72G G73A noted as 0.707

What the record says about A43C A78U : self-cleavage is 0.0415

For reference, reported self-cleavage for U9C C57G stands at 1.17

// recorded self-cleavage for G59A U79C : 0.518

Consider C63G . Its measured self-cleavage is 0.764
